Assay: Apparent permeability of the compound at 200 uM incubated for 5 hrs by PAMPA assay
Assay type: ADME
experimental_readout: Papp at 5 h, 200 µM (×10⁻⁶ cm/s)
Hi! Could you send only the number? It should be in ×10⁻⁶ cm/s, unit omitted.

Read off the recorded Papp at 5 h, 200 µM for "CCCCc1nc2c(N)nc3ccccc3c2n1Cc1cccc(O)c1"
0.98

Read off the recorded Papp at 5 h, 200 µM for "CCCCc1nc2c(N)nc3ccccc3c2n1Cc1ccc(NC(=O)CCCCN)cc1"
0.838

Read off the recorded Papp at 5 h, 200 µM for "CCCCc1nc2c(N)nc3ccccc3c2n1Cc1cccc(NC(=O)OC(C)(C)C)c1"
1.24

Read off the recorded Papp at 5 h, 200 µM for "CCCCc1nc2c(N)nc3ccccc3c2n1Cc1ccc(NC(=O)OC(C)C)cc1"
5.12

Read off the recorded Papp at 5 h, 200 µM for "CCCCc1nc2c(N)nc3ccccc3c2n1Cc1ccc(NC(=O)CCCCCN)cc1"
0.436
